Test system: Capan1
Assay: IC50 assay, chemosensitivity to GEM
Assay type: cell-based
Conditions: Homo sapiens, CAPAN-1; Capan1, Vector; Fig. 5j
Measured quantity: IC50 (nM)
Answers are plain numbers, in nM.

Name the recorded IC50 of the molecule listed here: Nc1ccn([C@@H]2O[C@H](CO)[C@@H](O)C2(F)F)c(=O)n1 [GEM, gemcitabine] 44
